Cited source: patent US20250179059A1

Examples of molecules with documented IC50 follow.
- systemName: human BRD4 bromodomain II (Homo sapiens)
- Construct: human BRD4 bromodomain II [based on Genbank NM_058243, residues 349-460]; host or cells: E. coli
- protocolText: Bromodomain binding assay (AlphaScreen), BRD4 BDII
- conditionSummary: AlphaScreen assay, Table C2; read-out: BRD4 BDII IC50
measurementLabel: IC50

>  <querySmiles>
CC(=O)Nc1ccc(-c2cccc(-c3cccc(N4CCOCC4)c3)c2O)cc1F

>  <assayResult>
10 to 100 nM

$$$$
>  <querySmiles>
Cn1ccn(-c2ccc(-c3cc(F)cc(-c4ccnc(N5CC[C@H](N)C5)c4)c3O)cc2Cl)c1=O

>  <assayResult>
0.01 to 1 nM

$$$$
>  <querySmiles>
C[C@@H]1CN(c2cc(-c3cc(F)cc(-c4ccc(-n5ccn(C)c5=O)c(Cl)c4)c3O)cc3[nH]ncc23)C[C@H](C)N1

>  <assayResult>
0.01 to 1 nM

$$$$
>  <querySmiles>
CC(=O)Nc1ccc(-c2cccc(-c3cccc(N4C[C@H]5CC[C@@H](C4)N5)c3)c2O)cc1F

>  <assayResult>
10 to 100 nM

$$$$

====

- systemName: human BRD4 bromodomain II (Homo sapiens)
- Construct: human BRD4 bromodomain II [based on Genbank NM_058243, residues 349-460]; host or cells: E. coli
- protocolText: Bromodomain binding assay (AlphaScreen), BRD4 BDII
- conditionSummary: AlphaScreen assay, Table C2; read-out: BRD4 BDII IC50
pIC50: −log10 of the molar value.

>  <molecule>
CCc1cc(-c2cccc(-c3ccc(N4CCN(C)C4=O)c(Cl)c3)c2O)cc(N2CCNCC2)n1 [Example 374]

>  <pIC50>
8.00 to 9.00

$$$$
>  <molecule>
CC(=O)Nc1ccc(-c2cccc(-c3ccnc(N4CC[C@@H](O)C4)c3)c2O)cc1F [Example 251]

>  <pIC50>
7.00 to 8.00

$$$$
>  <molecule>
Cn1cc(-c2cc(F)cc(-c3ccc(-n4ccn(C)c4=O)c(Cl)c3)c2O)cc(N2CC[C@](C)(N)C2)c1=O [Example 759]

>  <pIC50>
9.00 to 11.00

$$$$
>  <molecule>
Cn1ccn(-c2ccc(-c3cc(F)cc(-c4ccnc(N5CC[C@@H](O)[C@H](N)C5)c4)c3O)cc2Cl)c1=O [Example 487]

>  <pIC50>
8.00 to 9.00

$$$$

====

Examples of compounds with documented pIC50 follow.
- systemName: human BRD4 bromodomain II (Homo sapiens)
- Construct: human BRD4 bromodomain II [based on Genbank NM_058243, residues 349-460]; host or cells: E. coli
- protocolText: Bromodomain binding assay (AlphaScreen), BRD4 BDII
- conditionSummary: AlphaScreen assay, Table C2; read-out: BRD4 BDII IC50
pIC50: −log10 of the molar value.

>  <compound>
COc1cc(-c2cccc(-c3cc(F)c(N4CCCC4=O)c(F)c3)c2O)ccc1NC(C)=O

>  <systemName>
human BRD4 bromodomain II (Homo sapiens)

>  <pIC50>
7.00 to 8.00

$$$$
>  <compound>
Cn1ccn(-c2ccc(-c3cc(F)cc(-c4ccc(Cl)c(N5CCN(C(C)(C)C)CC5)c4)c3O)cc2Cl)c1=O

>  <systemName>
human BRD4 bromodomain II (Homo sapiens)

>  <pIC50>
8.00 to 9.00

$$$$
>  <compound>
CC(=O)Nc1cc(-c2cccc(-c3ccc(N4CCN(C)C4=O)c(Cl)c3)c2O)cc(N2CCNCC2)n1

>  <systemName>
human BRD4 bromodomain II (Homo sapiens)

>  <pIC50>
8.00 to 9.00

$$$$
>  <compound>
Cn1ccn(-c2ccc(-c3cc(F)cc(-c4ccnc(N5CCC(C)(O)C5)c4)c3O)cc2Cl)c1=O (stereo not shown)

>  <systemName>
human BRD4 bromodomain II (Homo sapiens)

>  <pIC50>
9.00 to 11.00

$$$$

====

- systemName: human BRD4 bromodomain II (Homo sapiens, UniProt O60885)
- Construct: human BRD4 bromodomain II [based on Genbank NM_058243, residues 349-460]; host or cells: E. coli
- protocolText: Bromodomain binding assay (AlphaScreen), BRD4 BDII
- conditionSummary: AlphaScreen assay, Table C2; read-out: BRD4 BDII IC50
Examples of molecules with documented IC50 follow.
measurementLabel: IC50

>  <molecule>
CC(=O)Nc1ccc(-c2cccc(-c3ccc(N4CCOCC4)cc3)c2O)cc1F

>  <assayResult>
> 100 nM

$$$$
>  <molecule>
CC(=O)Nc1ccc(-c2cccc(-c3cccc(N4CCNC[C@H]4C)c3)c2O)cc1F

>  <assayResult>
1 to 10 nM

$$$$
>  <molecule>
O=C1NCCCN1c1ccc(-c2cccc(-c3ccnc(N4CCNCC4)c3)c2O)cc1Cl

>  <assayResult>
10 to 100 nM

$$$$
>  <molecule>
CC(=O)Nc1ccc(-c2cccc(-c3ccnc(C(N)=O)c3)c2O)cc1F

>  <assayResult>
> 100 nM

$$$$
>  <molecule>
CC(=O)Nc1ccc(-c2cccc(-c3ccc(NC(C)=O)c(C(F)(F)F)c3)c2O)cc1F

>  <assayResult>
> 100 nM

$$$$
>  <molecule>
Cn1ccn(-c2ccc(-c3cc(F)cc(-c4cc(N5CCNCC5)c5nn[nH]c5c4)c3O)cc2Cl)c1=O

>  <assayResult>
1 to 10 nM

$$$$
>  <molecule>
CC(=O)Nc1ccc(-c2cccc(-c3cc(N4CCNCC4)no3)c2O)cc1OC1CC2(COC2)C1 [Example 28, 2,2,2-trifluoroacetate]

>  <assayResult>
10 to 100 nM

$$$$
>  <molecule>
O=C1CCCN1c1ccc(-c2cc(F)cc(-c3ccnc(N4CCNCC4)c3)c2O)cc1Cl

>  <assayResult>
1 to 10 nM

$$$$

====

- System: human SKM-1 acute myeloid leukemia cells
- protocolText: SKM-1 antiproliferation cell-based assay (ATPlite)
- conditionSummary: Homo sapiens, SKM-1, 96 h, SKM-1 antiproliferation assay, 4 days, Table C2
measurementLabel: GI50

>  <compound>
Cn1ccn(-c2ccc(-c3cc(F)cc(-c4cc(N5CCN6CCCC6C5)c5cn[nH]c5c4)c3O)cc2Cl)c1=O (stereo not shown) [Example 606]

>  <systemName>
human SKM-1 acute myeloid leukemia cells

>  <measurementLabel>
GI50

>  <assayResult>
0.0003 to 0.03 µM

$$$$
>  <compound>
CC(C)N1CCN(c2cc(-c3cc(F)cc(-c4ccc(-n5ccn(C)c5=O)c(Cl)c4)c3O)ccc2C(F)(F)F)CC1 [Example 811]

>  <systemName>
human SKM-1 acute myeloid leukemia cells

>  <measurementLabel>
GI50

>  <assayResult>
0.03 to 0.3 µM

$$$$
>  <compound>
COc1cc(-c2cc(F)cc(-c3ccc(-n4ccn(C)c4=O)c(Cl)c3)c2O)cc(N2CCN(C(C)C)CC2)n1 [Example 702]

>  <systemName>
human SKM-1 acute myeloid leukemia cells

>  <measurementLabel>
GI50

>  <assayResult>
0.0003 to 0.03 µM

$$$$
>  <compound>
C[C@@H]1CN(c2cncc(-c3cccc(-c4ccc(N5CCCC5=O)c(Cl)c4)c3O)c2)CCN1 [Example 265]

>  <systemName>
human SKM-1 acute myeloid leukemia cells

>  <measurementLabel>
GI50

>  <assayResult>
0.03 to 0.3 µM

$$$$
>  <compound>
[2H]C([2H])([2H])n1ccn(-c2ccc(-c3cc(F)cc(-c4ccnc(N5CCC[C@H](NC)C5)c4)c3O)cc2Cl)c1=O [Example 456]

>  <systemName>
human SKM-1 acute myeloid leukemia cells

>  <measurementLabel>
GI50

>  <assayResult>
0.0003 to 0.03 µM

$$$$
>  <compound>
[2H]C([2H])([2H])n1ccn(-c2ccc(-c3cc(F)cc(-c4ccnc(N5CCNC[C@@H]5C)c4)c3O)cc2Cl)c1=O [Example 482]

>  <systemName>
human SKM-1 acute myeloid leukemia cells

>  <measurementLabel>
GI50

>  <assayResult>
0.0003 to 0.03 µM

$$$$
>  <compound>
COCc1ncc(-c2cc(F)cc(-c3ccc(N4CCN(C)C4=O)c(Cl)c3)c2O)cc1N1CCNCC1 [Example 399]

>  <systemName>
human SKM-1 acute myeloid leukemia cells

>  <measurementLabel>
GI50

>  <assayResult>
0.03 to 0.3 µM

$$$$

====

- systemName: human BRD4 bromodomain II (Homo sapiens)
- Construct: human BRD4 bromodomain II [based on Genbank NM_058243, residues 349-460]; host or cells: E. coli
- protocolText: Bromodomain binding assay (AlphaScreen), BRD4 BDII
- conditionSummary: AlphaScreen assay, Table C2; read-out: BRD4 BDII IC50

>  <compound>
Cn1ccn(-c2ccc(-c3cc(F)cc(-c4ccnc(N5CCNCC5)c4)c3O)cc2Cl)c1=O

>  <systemName>
human BRD4 bromodomain II (Homo sapiens)

>  <IC50>
1 to 10 nM

$$$$
>  <compound>
Cn1ccn(-c2ccc(-c3cc(F)cc(-c4cc(N5CC[C@H](N)C5)c5cn[nH]c5c4)c3O)cc2Cl)c1=O

>  <systemName>
human BRD4 bromodomain II (Homo sapiens)

>  <IC50>
1 to 10 nM

$$$$
>  <compound>
CC(=O)Nc1ccc(-c2cccc(-c3ccnc(C#CCN)c3)c2O)cc1F

>  <systemName>
human BRD4 bromodomain II (Homo sapiens)

>  <IC50>
10 to 100 nM

$$$$
>  <compound>
CC(=O)Nc1ccc(-c2cccc(-n3cnc(-c4ccc(F)cc4)c3)c2O)cc1

>  <systemName>
human BRD4 bromodomain II (Homo sapiens)

>  <IC50>
> 100 nM

$$$$
>  <compound>
CN1CCN(c2ccc(-c3cc(F)cc(-c4cnc(-c5ccn[nH]5)c(N5CCNCC5)c4)c3O)cc2Cl)C1=O

>  <systemName>
human BRD4 bromodomain II (Homo sapiens)

>  <IC50>
1 to 10 nM

$$$$
>  <compound>
Cn1ccn(-c2ccc(-c3cc(F)cc(-c4cncc(N5CCC(C)(N)C5)c4)c3O)cc2Cl)c1=O (centres unmarked)

>  <systemName>
human BRD4 bromodomain II (Homo sapiens)

>  <IC50>
0.01 to 1 nM

$$$$
>  <compound>
O=C1NCCCN1c1ccc(-c2cc(F)cc(-c3ccnc(N4CCNCC4)c3)c2O)cc1Cl

>  <systemName>
human BRD4 bromodomain II (Homo sapiens)

>  <IC50>
> 100 nM

$$$$
>  <compound>
CC(=O)Nc1ccc(-c2cccc(-c3cccc(-c4cn[nH]c4)c3)c2O)cc1F

>  <systemName>
human BRD4 bromodomain II (Homo sapiens)

>  <IC50>
> 100 nM

$$$$
